Test system: SF-268 CNS
Experiment: NCI tumour cell line growth inhibition, 48 h
GI50 values, listed per item

Completed entries (count: 2):
CCCCCCCCCCCC1=NC(C)(C)CN1CCO    6.68 µM
CC(C)(C)C(=O)OCOP(=O)(OCOC(=O)C(C)(C)C)C1CCCN(OC(=O)c2ccccc2)C1=O (stereo not drawn)    1.86 µM

Attention now turns to another entry.
Exercise: What does the record list as GI50 for `CC(C)c1ccc2c(N=Nc3ccc(S(N)(=O)=O)cc3)c(O)[nH]c2c1` ?
Solution: 7.52 µM

###

Test system: OVCAR-4 ovarian
Assay: NCI tumour cell line growth inhibition, 48 h
Assay Readout: TGI

Exercise: What does the record list as TGI for `Cn1c(=O)nc2n(-c3ccc(F)cc3)c3ccccc3nc-2c1=O` ?
Solution: 27.8 µM

Exercise: What does the record list as TGI for `COc1ccc(-c2nc(N)c(C#N)c3c2CCSc2ccc(C)cc2-3)cc1OC` ?
Solution: > 93.8 µM

Exercise: What does the record list as TGI for `COc1ccc(C(=O)/C(=N/Nc2ccccc2)c2ccc(OC)cc2)cc1` ?
Solution: > 100 µM

Exercise: What does the record list as TGI for `COc1ccc2nc3cccc([N+](=O)[O-])c3c(NCCN(CCO)CCO)c2c1` ?
Solution: 0.0685 µM

Exercise: What does the record list as TGI for CN(CCCCCl)P(=O)(OCc1ccc([N+](=O)[O-])o1)C(F)(F)c1ccc(CC(=O)N[C@@H](CC(=O)O)C(=O)N[C@@H](Cc2ccc(C(F)(F)P(=O)(OCc3ccc([N+](=O)[O-])o3)N(C)CCCCCl)cc2)C(N)=O)cc1 (some centres not stated) ?
Solution: > 100 µM

Exercise: What does the record list as TGI for COC1OCC(OS(=O)(=O)c2ccc(C)cc2)C(OC(=O)c2ccccc2)C1OC(=O)c1ccccc1 (configuration not stated) ?
Solution: > 100 µM

Exercise: What does the record list as TGI for `O=C(CCc1nnc(-c2c(Cl)cccc2Cl)o1)c1nc2ccccc2[nH]1` ?
Solution: > 100 µM

Exercise: What does the record list as TGI for CC1=NN(C(=O)CC(=O)Nc2ccccc2C)C(=O)C1N=Nc1ccc(S(=O)(=O)c2ccc(N=NC3C(=O)N(C(=O)CC(=O)Nc4ccccc4C)N=C3C)cc2)cc1 (configuration not stated) ?
Solution: > 100 µM

Exercise: What does the record list as TGI for `C[N+](C)(C)CCC(=O)N1C/C(=C\c2ccccc2)C(=O)/C(=C/c2ccccc2)C1` ?
Solution: 9.79 µM

Exercise: What does the record list as TGI for `CN(C)c1ccccc1CC(c1c[nH]c2ccccc12)c1c[nH]c2ccccc12` ?
Solution: 21.1 µM

###

System: HOP-62 NSCLC
Experiment: NCI tumour cell line growth inhibition, 48 h
Classification field: yes (1) = TGI at or over 30 µM; no (0) = TGI under 30 µM.

O=C(O)CN(CC(=O)O)Cc1cc2c(cc1O)Oc1cc(O)c(CN(CC(=O)O)CC(=O)O)cc1C21OC(=O)c2ccccc21    yes (1)
CCc1ccc(CCC(=O)Nc2ncc(Cc3cc(Cl)ccc3Cl)s2)o1    no (0)
O=c1[nH]c(=O)n(C2CC(O)C(COP(=O)(O)OC3CC(n4cc(F)c(=O)[nH]c4=O)OC3COP(=O)(O)OC3CC(n4cc(F)c(=O)[nH]c4=O)OC3COP(=O)(O)OC3CC(n4cc(F)c(=O)[nH]c4=O)OC3COP(=O)(O)OC3CC(n4cc(F)c(=O)[nH]c4=O)OC3COP(=O)(O)OC3CC(n4cc(F)c(=O)[nH]c4=O)OC3COP(=O)(O)OC3CC(n4cc(F)c(=O)[nH]c4=O)OC3COP(=O)(O)OC3CC(n4cc(F)c(=O)[nH]c4=O)OC3COP(=O)(O)OC3CC(n4cc(F)c(=O)[nH]c4=O)OC3COP(=O)(O)OC3CC(n4cc(F)c(=O)[nH]c4=O)OC3CO)O2)cc1F (centres undefined)    yes (1)

Exercise: Determine whether this compound has TGI no lower than 30 µM: `O=c1oc2c3ccc4ccccc4c3n(CCN3CCOCC3)c2c2ccccc12`
Solution: yes (1)

Exercise: Determine whether this compound has TGI no lower than 30 µM: `Oc1ccc(-c2c3ccccc3c(-c3ccc(OCCBr)cc3)c3ccccc23)cc1`
Solution: yes (1)

Exercise: Determine whether this compound has TGI no lower than 30 µM: `C=C1C(=O)O[C@H]2[C@H]1CC/C(C=Nc1ccc(C(F)(F)F)cc1N)=C\CC[C@@]1(C)O[C@@H]21`
Solution: no (0)

Exercise: Determine whether this compound has TGI no lower than 30 µM: `Fc1ccc(CNc2c3ccccc3nc3ccccc23)cc1`
Solution: no (0)

Exercise: Determine whether this compound has TGI no lower than 30 µM: CC1=C2C(=O)C3[C@@H](CCC4=CC(=O)CC[C@@]43C)C2CC[C@]12O[C@@H]1C[C@H](C)CN[C@H]1[C@H]2C (some centres undefined)
Solution: yes (1)

Exercise: Determine whether this compound has TGI no lower than 30 µM: C[C@H](CCC(=O)O[C@@H]1CC[C@@]2(C)C(CC[C@H]3[C@@H]4CC[C@H]([C@H](C)CCc5nc6ccccc6[nH]5)[C@@]4(C)CC[C@@H]32)C1)[C@H]1CC[C@H]2[C@@H]3CCC4C[C@H](O)CC[C@]4(C)[C@H]3CC[C@]12C (some centres undefined)
Solution: yes (1)

###

Tested on: NCI-H522 lung
Test: NCI tumour cell line growth inhibition, 48 h; in the data active means GI50 below about 0.43 µM; inactive means the rest
Can you answer with just one of these options? active, inactive

Solved entries:
Fc1ccc(CNc2c3ccccc3nc3ccccc23)cc1    inactive
CC(C)(C)C(=O)OCOP(=O)(OCOC(=O)C(C)(C)C)C1CCCN(OC(=O)c2ccccc2)C1=O (centres undefined)    active
O=C(CSc1nc2ccc([N+](=O)[O-])cc2[nH]1)Nc1cccc(Cl)c1    inactive

Exercise: Please state the recorded outcome for this compound: `COc1ccc(Nc2c3c4c(cccc4[nH]c2=O)C(=O)c2ccccc2-3)cc1`
Solution: active

Exercise: Please state the recorded outcome for this compound: `O=C(Nc1ncc(Cc2ccccc2)s1)c1ccc2c(c1)OCCO2`
Solution: active

Exercise: Please state the recorded outcome for this compound: CC1(C)Cc2cccc(OCC(O)CN3CCN(c4ccc(F)cc4)CC3)c2O1 (centres undefined)
Solution: inactive

Exercise: Please state the recorded outcome for this compound: `O=C(N/N=C/c1coc2ccc(Cl)cc2c1=O)c1ccncc1`
Solution: inactive

Exercise: Please state the recorded outcome for this compound: `COc1ccc(-c2cn(-c3ccc(Cl)cc3)c(=S)[nH]2)cc1OC`
Solution: inactive

Exercise: Please state the recorded outcome for this compound: `O=C(CCCCCCC(=O)N/N=C/c1ccc(N(c2ccccc2)c2ccccc2)cc1)NO`
Solution: inactive

Exercise: Please state the recorded outcome for this compound: `C#CC[C@@H]1C[C@]2(C)[C@H]3CC[C@@H]4[C@H]5[C@H](C(=C)C)CC[C@]5(C(=O)O)CC[C@@]4(C)[C@]3(C)CC[C@H]2C(C)(C)[C@H]1O`
Solution: inactive

Exercise: Please state the recorded outcome for this compound: `C(=N/Nc1ncnc2nc[nH]c12)/c1ccccn1`
Solution: inactive

Exercise: Please state the recorded outcome for this compound: `O=C1Nc2cc(Cl)ccc2Oc2cc(Oc3ccccc3)ccc21`
Solution: inactive

Exercise: Please state the recorded outcome for this compound: COc1ccc(C(=O)C(c2ccc(OC)cc2)C2C(=O)Oc3ccccc32)cc1 (centres undefined)
Solution: inactive

Exercise: Please state the recorded outcome for this compound: `C=C1C(=O)O[C@H]2[C@H]1CC/C(COC(=O)/C=C\C(=O)NCc1ccc(Cn3c(=O)sn(-c4ccc(OC)cc4)c3=O)cc1)=C\CC[C@@]1(C)O[C@@H]21`
Solution: inactive

###

System: ACHN renal
Test: NCI tumour cell line growth inhibition, 48 h
TGI values, listed per item

Completed entries (count: 5):
COc1nc(/C=N/NC(N)=S)nc(OC)n1    > 100 µM
CC(C)=CCC/C(C)=C/CC/C(C)=C/CC/C=C(\C)CC/C=C(\C)CCC1SC1(C)C (stereo unspecified)    > 100 µM
CSc1c(CC(=O)O)n(Cc2ccccc2)c2ccccc12    > 100 µM
Cc1c2ccccc2c(CO)c2cc(F)c3ccccc3c12    58.2 µM
OCCOCCN1CCN(c2nc(N3CCCC3)c3nc(Cl)c(NCc4ccccc4)nc3n2)CC1    27.2 µM

Exercise: What does the record list as TGI for `Cc1nc2c(O)cccc2c(=O)[nH]1` ?
Solution: > 1000 µM

Exercise: What does the record list as TGI for CCN(CC)CCCC(C)NC(=O)c1cc(-c2nccn2C)nc2ccc(C)cc12 (stereo unspecified) ?
Solution: > 100 µM

Exercise: What does the record list as TGI for `c1ccc2c(c1)ccc1ncccc12` ?
Solution: > 100 µM

###

System: U251 CNS
Assay: NCI tumour cell line growth inhibition, 48 h
Assay Readout: TGI (µM)
Return type: number; implicit unit µM.

Completed entries (count: 3):
COc1ccc2nc3cccc([N+](=O)[O-])c3c(NCCN(CCO)CCO)c2c1    0.136
CC(C)=CCC[C@](C)(O)[C@H]1CC[C@]2(C)[C@@H]1[C@H](O)C[C@@H]1[C@@]3(C)CC[C@H](O[C@@H]4O[C@H](CO)[C@@H](O)[C@H](O)[C@H]4O)C(C)(C)[C@@H]3CC[C@]12C    35.2
O=C(CCCCC(=O)N/N=C\c1ccccc1Cl)N/N=C\c1ccccc1Cl    21

Attention now turns to another entry.
Exercise: What does the record list as TGI for `O=C(CSc1nc2ccc([N+](=O)[O-])cc2[nH]1)Nc1cccc(Cl)c1` ?
Solution: 13.1

Where do these numbers come from? They come from PubChem BioAssay (NCI).
